Values were extracted from the supplement of paper PMC12667976.

B1: library; numbered along this chain (parent)
chain: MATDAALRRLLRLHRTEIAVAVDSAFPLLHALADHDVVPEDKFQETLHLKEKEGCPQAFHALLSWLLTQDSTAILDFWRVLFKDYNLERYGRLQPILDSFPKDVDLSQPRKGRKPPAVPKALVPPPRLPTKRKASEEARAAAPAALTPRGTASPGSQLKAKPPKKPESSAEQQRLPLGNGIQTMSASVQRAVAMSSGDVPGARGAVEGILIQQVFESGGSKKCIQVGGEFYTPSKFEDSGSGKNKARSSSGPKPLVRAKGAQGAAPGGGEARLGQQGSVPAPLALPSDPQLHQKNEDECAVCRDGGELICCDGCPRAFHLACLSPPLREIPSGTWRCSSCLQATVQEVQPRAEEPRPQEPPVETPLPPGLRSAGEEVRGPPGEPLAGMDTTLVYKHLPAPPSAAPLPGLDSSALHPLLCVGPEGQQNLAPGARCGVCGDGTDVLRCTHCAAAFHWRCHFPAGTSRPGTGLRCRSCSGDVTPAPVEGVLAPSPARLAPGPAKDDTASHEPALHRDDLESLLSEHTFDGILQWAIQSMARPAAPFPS

- Variants of: B1
- experimental_details: AIRE transcriptional activation functional score (insulin promoter-GFP; nonsense median 0, synonymous median 1) (normalised score); higher = higher AIRE activity (more reporter activation)
- protocol_conditions: with insulin promoter-GFP reporter in HEK293
attribute_measured: AIRE transcriptional activation functional score
API doc: respond with a numeric literal and nothing else, no unit.

Entry T480N has what AIRE transcriptional activation functional score?
0.784

What would you report for G477Y ?
0.642

What would you report for G54A ?
-0.977

What would you report for G112W ?
1.45

What would you report for T468P ?
0.984

What would you report for A186R ?
0.648

What would you report for S187V ?
0.398

What would you report for T390K ?
1.1

What would you report for D410G ?
0.967

What would you report for E53I ?
1.49

What would you report for Q57S ?
0.217

What would you report for R190Y ?
0.797

What would you report for T344M ?
1.37

What would you report for V348R ?
1.19

What would you report for T16N ?
0.597

What would you report for T147G ?
0.811

What would you report for G240Y ?
-0.451

What would you report for A540M ?
0.694

What would you report for V393W ?
1.67

What would you report for K161M ?
0.88

What would you report for V226F ?
0.889

What would you report for G306W ?
0.744

What would you report for S278R ?
0.819

What would you report for P368C ?
1.55

What would you report for E51D ?
0.852

What would you report for I211S ?
0.773

What would you report for L529Y ?
0.598

What would you report for G421D ?
1.83

What would you report for L273S ?
0.975

What would you report for C475L ?
0.0763

What would you report for G268K ?
0.831

What would you report for S476I ?
1.23

What would you report for L529E ?
-0.369

What would you report for G374L ?
1.29
